- MEASUREMENT PROTOCOL: NCI Yeast Anticancer Drug Screen. Data for the mec2-1 strain (AID 157)
- CONDITION SUMMARY: S. cerevisiae mec2-1 strain, at 50.0 µM, active compounds read high
This is part of a sample that, as a whole, favours compounds with a hit. Of some 79,000 tested, about 15% had one in any assay.
QUANTITY MEASURED: growth inhibition (%)
API: value field is a number in %; no unit string.

Please review the entries below; each comes with its answer.
[[record]]
compound = "Cc1cccc(C)c1NN"
measurement_units = "%"
numeric_value = -4.15

[[record]]
compound = "COc1ccc(C(C)c2cc3c(cc2OC)OCO3)cc1OC (stereo not drawn)"
measurement_units = "%"
numeric_value = -6.7

[[record]]
compound = "C=C(C)C1CC=C(C)[C@](O)(C2(O)C[C@H](C(=C)C)CC=C2C)C1 (stereo partly drawn)"
measurement_units = "%"
numeric_value = 6.95


Next item in the queue.
I'd like to know its growth inhibition. The compound in question is CSCCC(NC(C)=O)C(=O)O (stereo not drawn)
1.5
